# SYSTEM: T1, N-hCD73-his (N-terminal domain of human CD73, residues 26-336, His tag) (human, UniProt P21589 26-336)
# T1 sequence: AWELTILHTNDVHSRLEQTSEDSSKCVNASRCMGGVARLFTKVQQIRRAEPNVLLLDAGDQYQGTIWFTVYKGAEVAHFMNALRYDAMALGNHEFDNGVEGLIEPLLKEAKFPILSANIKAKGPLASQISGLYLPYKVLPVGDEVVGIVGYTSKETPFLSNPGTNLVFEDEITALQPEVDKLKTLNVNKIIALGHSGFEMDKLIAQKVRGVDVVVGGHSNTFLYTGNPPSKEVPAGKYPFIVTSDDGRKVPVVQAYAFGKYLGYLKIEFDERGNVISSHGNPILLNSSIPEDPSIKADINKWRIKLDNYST
# ASSAY INFO: SPR, mAb captured on protein A
VALUE TYPE: kon (M⁻¹ s⁻¹)
Give just the number in M⁻¹ s⁻¹; leave the unit off.

Answered cases to consult:
5F8 (antibody, human IgG1, kappa, V domains shown, IgG1za; VK2 also expressed; also called 5F8-1) VH: EVQLVESGGGLVQPGGSLRLSCAASGFTFSSYWMHWVRQAPGKGLVWVSRIISDGSSTGYADSVKGRFTISRDNAKNTLYLQMNSLRAEDTAVYYCAREFSSGWYFDYWGQGTLVTVSS VL: AIQLTQSPSSLSASVGDRVTITCRASQGISSALAWYQQKPGKAPKLLIYDASSLESGVPSRFSGSGSGTDFTLTISSLQPEDFATYYCQQFSSYPRTFGQGTKVEIKR = 150000
7A11 (antibody, human IgG1, kappa, V domains shown, IgG1za; also called 7A11-1) VH: EVQLVESGGGLVQTGRSLRLSCAASGFTFDDYAMHWVRQAPGKGLEWVSDISWNSDIIGYADSVKGRFTISRDNAKNSLYLQMNSLRAEDTALYYCAKDIYGSGSSFFDYWGQGILVTVSS VL: DIQMTQSPSSLSASVGDRVTITCRASQYISSWLAWYQQKPEKAPKSLIYAASSLQSGVPSRFSGSGSGTDFTLTISSLQPEDFATYYCQQYHSYPPTFGQGTRLEIKR = 880000
10D2 (antibody, human IgG4, kappa, V domains shown, also called 10D2-2) VH: QVQLVESGGGVVQPGRSLRLSCAASGFTFSNYGLHWVRQAPGKGLEWVAVIRYDGSNKYYADSVKGRFTISRDNSKNTLYLQMSSLRAEDTAVYYCARGGSSWYPDGLDVWGQGTTVTVSS VL: DIQMTQSPSSLSASVGDRVTITCRASQGISSWLAWYQQKPEKAPKSLIYAASSLQSGVPSRFSGSGSGTDFTLTISSLQPEDFATYYCQQYNSYPLTFGGGTKVEIKR = 610000
11A6 (antibody, human IgG1, kappa, V domains shown, IgG1za; also called 11A6-1) VH: EVQLVESGGNLVQPGRSLRLSCAASGFTFDDYAMHWVRQAPGKGLEWVSGISWNNNDIGYADSVKGRFIISRDNAKNSLYLQMNSLRPEDTALYYCVKGYYVILTGLDYWGQGTPVTVSS VL: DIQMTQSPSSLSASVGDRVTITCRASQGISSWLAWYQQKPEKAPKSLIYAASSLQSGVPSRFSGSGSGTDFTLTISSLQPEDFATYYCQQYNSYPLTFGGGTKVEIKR = 55000

Exercise: Field request: kon | item: 24H2 (antibody, human IgG4, kappa, V domains shown, also called 24H2-1) VH: QVQLVESGGGVVQPGRSLRLSCAASGFTFSNYGMHWVRQAPGKGLEWVAVIWYDGGNKYYADSVKGRFTISRDNSKNTLFLQMNSLRAEDTAVYYCARGGSSWYPDAFDIWGQGTMVTVSS VL: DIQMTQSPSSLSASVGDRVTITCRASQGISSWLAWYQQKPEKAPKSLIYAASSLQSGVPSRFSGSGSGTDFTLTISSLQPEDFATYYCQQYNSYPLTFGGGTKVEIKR
Key: 230000
